// Percent Effect lookup, one value per entry
- ASSAY_SYSTEM: Arginase-2, mitochondrial (Homo sapiens) (UniProt P78540)
- Sequence (P78540 whole entry): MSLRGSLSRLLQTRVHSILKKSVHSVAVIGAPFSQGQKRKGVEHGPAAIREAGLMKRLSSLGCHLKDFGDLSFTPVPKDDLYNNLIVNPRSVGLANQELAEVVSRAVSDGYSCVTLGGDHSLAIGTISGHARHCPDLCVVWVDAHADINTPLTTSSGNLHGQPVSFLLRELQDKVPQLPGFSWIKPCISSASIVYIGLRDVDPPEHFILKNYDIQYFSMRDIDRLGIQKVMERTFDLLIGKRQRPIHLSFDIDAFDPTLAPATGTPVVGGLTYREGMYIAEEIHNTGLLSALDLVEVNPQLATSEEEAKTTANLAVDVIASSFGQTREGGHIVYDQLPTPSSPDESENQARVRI
- EXPERIMENTAL_DETAILS: in vitro enzyme assay to detect the production of urea directly proportional to the activity of Arginase II; note: in the data most compounds retested in dose-response had high values
- Assay type: functional
- Design: scale not given: direction of the effect not stated beside the values
- CONDITION_DESCRIPTION: 33.3 µM
READOUT_TYPE: Percent Effect (%)

CC(C)CN1CCN(C(=O)NCc2cccnc2-n2cccn2)CC1 | -2.22
Cc1nc(C)c(C(=O)NCCNC(=O)c2ccc(F)cc2F)s1 | -4.25
CN(C)CC(=O)N1C[C@@H]2CC[C@H](Oc3ccccc3Cl)[C@@H]2C1 | -3.48
O=C(c1cc(COc2ccc3c(c2)OCO3)[nH]n1)N1CCOCC1 | 0.798
O=C(NCCCN1CCOCC1)c1cc(-c2ccc3c(c2)CCO3)n[nH]1 | -15
COc1ncccc1C(=O)N1CCC(CNC(C)=O)CC1 | 1.56
CC(C)CNC(=O)c1c(-n2cnnn2)sc2c1CCC2 | 0
COc1ncccc1CNC(=O)NCCNC(=O)c1ccco1 | 1.33
CC(C)OCCC(=O)N(C)CCCc1cc(-c2ccccc2)no1 | -1.66
CCC(=O)N1CCC2(COCc3c(C)nc(N(C)C)nc32)C1 (configuration not stated) | -0.417
Cc1cc(NC(=O)NCC(C)O)n(C)n1 (configuration not stated) | 0
CC(C)(O)CN1CCN(C(=O)c2cc(Cl)cc3cccnc23)CC1 | 6.15

###

Property: Percent Effect; scope: individual compounds
- ASSAY_SYSTEM: Protein translocase subunit SecA (Escherichia coli (strain K12))
- EXPERIMENTAL_DETAILS: Assay to Identify E. coli SecA ATPase Inhibitors
- Assay type: functional
- Design: scale not given: direction of the effect not stated beside the values
- CONDITION_DESCRIPTION: 30 µM
Results with a measured potency or affinity are listed apart.
READOUT_TYPE: Percent Effect (%)

O=C1c2cnc(N3CCOCC3)nc2CN1c1ccc2c(c1)OCO2 | -4.88
Cc1cnc(C)c(N2CCN(Cc3ccc(-c4cc[nH]n4)o3)CC2)n1 | -0.779
CCN(C(=O)c1ccc(-n2ncc(C#N)c2N)cc1)C1CCCC1 | -1.54
CCC(=O)N1CCN(C(=O)CCn2cccn2)CC1 | -1.61
O=C(O)C1CCCCN1C(=O)c1cccc(C(F)(F)F)c1 (centres undefined) | -6.15
Cc1nn(C)c(N(C)C)c1CNCC(O)COc1ccccc1 (centres undefined) | -3.8
O=C(c1cc(C2CC2)[nH]n1)N1CCN(Cc2ccsc2)CC1 | -5.68
Cc1noc(C2CCN(C(=O)CN(C)c3ccc(Cl)cn3)CC2)n1 | -1.77
Cn1ccnc1-c1cccc(NC(=O)NCCN2CCOCC2)c1 | -4.99
Cc1cc(C)n(CC2CCCCN2C(=O)c2cnn(C)c2)n1 (centres undefined) | -5.83
CC(C)NC(=O)C1CN(C(N)=O)Cc2ccnn2C1 (centres undefined) | -0.679
CCc1nccn1C1CCCN(C(=O)c2csc(NC(C)=O)n2)C1 (centres undefined) | -3.11
Cc1ncc(CNC(=O)Cc2ccc(Cl)cc2)c(C2CCCN2C)n1 (centres undefined) | -5.53
CN1CCC(Cc2cc(Nc3ncccn3)ncn2)CC1 | -1.87
Cc1cc(CNc2ccc(C(=O)N3CCCC(C)C3)cc2C)no1 (centres undefined) | -4.07
O=S(=O)(Nc1cnn(C2CCOCC2)c1)c1ccc(F)c(F)c1 | -2.82
CC(C)c1nccn1-c1cccc(C2CCCN(C3CCCC3)C2)n1 (centres undefined) | -2.48
Cc1[nH]ncc1C(=O)N1CCN(CC(O)C(C)(C)C)CC1 (centres undefined) | -2.19
CCc1c(C)nn(CCNC(=O)C2CCCN(C(=O)N(C)C)C2)c1C (centres undefined) | -6.94
CC(=O)c1cccc(NC(=O)CN2CCCCC2C2OCCO2)c1 (centres undefined) | -5.29
CCc1nc(CN(C)C2CCN(CCc3ccccn3)C2)no1 (centres undefined) | -0.239
CN(Cc1ccon1)C(=O)C1CC(=O)N(Cc2ccncc2)C1 (centres undefined) | -6.1
CCOc1ncccc1NC(=O)NC1CCN(S(C)(=O)=O)CC1 | -4.68
CCNC(=O)c1ccnc(NCC2COc3cc(OC)ccc3C2)c1 (centres undefined) | -6.93
